Values compiled from ChEMBL document CHEMBL4138232.

assay: Cytotoxicity against ADR-sensitive human MCF7 cells assessed as inhibition of cell viability at 10 uM after 48 hrs by MTT assay relative to control; assay type: cell-based; details: read-out: INH
Criterion: cytotoxicity at 48 h, 10 µM strictly less than 20%. Met: yes. Not met: no.

INSERT INTO measurements (compound, label) VALUES
  ('CC(=O)N1N=C(c2cccc(Oc3cc(O/N=[N+](\[O-])N4CCOCC4)c([N+](=O)[O-])cc3[N+](=O)[O-])c2)CC1c1ccc(N(C)C)cc1 (stereo unspecified)', 'no'),
  ('CC(=O)N1N=C(c2cccc(Oc3cc(O/N=[N+](\[O-])N4CCCCC4)c([N+](=O)[O-])cc3[N+](=O)[O-])c2)CC1c1ccc(N(C)C)cc1 (stereo unspecified)', 'yes'),
  ('COc1ccc(C2CC(c3cccc(Oc4cc(O/N=[N+](\[O-])N5CCCCC5)c([N+](=O)[O-])cc4[N+](=O)[O-])c3)=NN2C(C)=O)cc1 (stereo unspecified)', 'yes'),
  ('CC(=O)N1N=C(c2cccc(Oc3cc(O/N=[N+](\[O-])N4CCCCC4)c([N+](=O)[O-])cc3[N+](=O)[O-])c2)CC1c1ccc(C)cc1 (stereo unspecified)', 'yes'),
  ('COc1ccc(/C=C/C(=O)c2cccc(Oc3cc(O/N=[N+](\[O-])N4CCCCC4)c([N+](=O)[O-])cc3[N+](=O)[O-])c2)cc1', 'yes');
